Target: T1, IsdH (iron-regulated surface determinant protein H), recombinant (Staphylococcus aureus)
T1 construct: also called recombinant IsdH
T1 sequence (Q2FG07 41-864): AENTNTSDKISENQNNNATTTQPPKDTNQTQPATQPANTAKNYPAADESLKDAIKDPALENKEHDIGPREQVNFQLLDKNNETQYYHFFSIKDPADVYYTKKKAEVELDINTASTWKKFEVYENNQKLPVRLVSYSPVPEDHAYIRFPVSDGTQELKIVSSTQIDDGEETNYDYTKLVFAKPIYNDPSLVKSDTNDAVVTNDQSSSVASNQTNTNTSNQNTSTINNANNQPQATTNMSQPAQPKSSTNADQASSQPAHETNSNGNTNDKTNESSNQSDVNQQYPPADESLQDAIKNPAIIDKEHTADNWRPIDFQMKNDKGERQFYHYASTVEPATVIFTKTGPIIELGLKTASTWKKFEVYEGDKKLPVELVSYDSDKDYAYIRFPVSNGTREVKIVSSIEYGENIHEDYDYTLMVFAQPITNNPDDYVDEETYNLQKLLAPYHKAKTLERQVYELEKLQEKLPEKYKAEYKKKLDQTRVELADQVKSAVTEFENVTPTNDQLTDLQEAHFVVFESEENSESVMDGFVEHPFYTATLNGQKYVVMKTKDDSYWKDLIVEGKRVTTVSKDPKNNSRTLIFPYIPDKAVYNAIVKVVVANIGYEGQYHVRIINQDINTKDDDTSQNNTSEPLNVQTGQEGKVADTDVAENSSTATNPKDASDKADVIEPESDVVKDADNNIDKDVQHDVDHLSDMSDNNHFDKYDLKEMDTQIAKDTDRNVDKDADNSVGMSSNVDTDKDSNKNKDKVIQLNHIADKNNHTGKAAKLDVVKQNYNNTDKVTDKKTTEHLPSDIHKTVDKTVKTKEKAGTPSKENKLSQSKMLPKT
Test: ELISA on coated recombinant antigen, half-maximal binding

| binder | unit_info | EC50 |
| --- | --- | --- |
| STAU-328 (antibody, V domains shown) VH: QVQLQQWGAGLLKPSETLSLTCAVYGGSFSGYYWSWIRQPPGKGLEWIGEINHSGSTNYNPSLKSRVTISVDTSKNQFSLKLSSVTAADTAVYYCARDVGDRYYFDYWGQGTLVTVSS VL: QSALTQPASVSGSPGQSITISCTGTSSDVGSYNLVSWYQQHPGKAPKLMIYEGSKRPSGVSNRFSGSKSGNTASLTISGLQAEDEADYYCCSYAGSSTFVVFGGGTKLTVL | µg/mL | 0.06 |
| STAU-399 (antibody, V domains shown) VH: QVQLVQSGAEVKKPGSSLKVSCKVSGGNLRSYGISWVRQAPGQGLEWMGVIIPIFGTPTYAQKFQGRVTLAADDSNNIVFMELSSLRSEDTAVYYCARDWPSITVAVDATNYGMDVWGQGTLVTVSS VL: QSALTQPRSVSGSPGQSVTISCTGTSNDVGYYDHVSWYQQHPGKAPKFIIYDVSKRPSGVPDRFSGSKSDNTASLTISGLQAEDEADYYCCSFAGSYTYVFGTGTKVTVL | µg/mL | 0.95 |
| STAU-281 (antibody, V domains shown) VH: QVQLVQSGAEVKRPGSSVRVSCKDSGDSFRRYVINWVRQAPGQGLEWMGGIIPIFDKAKSVQKFQDRLTITADESTSTSYMELSSLTSEDTAVYYCARKEDGRRDDVFDIWGQGTLVTVSS VL: EIVMTQSPATLSVSLGERATLSCRASHSVGSSLAWYQQKPGLAPRLLIYGVSTRATGIPARFSGSGSATEFTLTISSLQSEDLAAYHCQQYDNWPFTFGQGTKLEIK | µg/mL | 0.0027 |
